What pIC50 was measured for each of the following?
# method.notes: Inhibition of aminopeptidase N
Give bare numbers, as −log10 of the molar value.

{"structure": "O=C(NCCCC[C@H](NC(=O)c1cccnc1)C(=O)NO)OCc1ccccc1", "pIC50": 4.03}

// for each compound in input: emit pIC50
1. O=C(NCCCC[C@H](NC(=O)c1cccnc1)C(=O)O)OCc1ccccc1
2. O=C(/C=C/c1ccccc1)N[C@@H](CCCCNC(=O)OCc1ccccc1)C(=O)NO
3. CC(C)C[C@H](NC(=O)[C@@H](O)[C@H](N)Cc1ccccc1)C(=O)O
4. O=C(/C=C/c1ccccc1)N[C@@H](CCCCNC(=O)OCc1ccccc1)C(=O)O

1: 3.78; 2: 3.24; 3: 4.81; 4: 3.67

* * *

# experimental.system: 72 kDa type IV collagenase (Homo sapiens, UniProt P08253)
# Sequence (P08253 whole entry): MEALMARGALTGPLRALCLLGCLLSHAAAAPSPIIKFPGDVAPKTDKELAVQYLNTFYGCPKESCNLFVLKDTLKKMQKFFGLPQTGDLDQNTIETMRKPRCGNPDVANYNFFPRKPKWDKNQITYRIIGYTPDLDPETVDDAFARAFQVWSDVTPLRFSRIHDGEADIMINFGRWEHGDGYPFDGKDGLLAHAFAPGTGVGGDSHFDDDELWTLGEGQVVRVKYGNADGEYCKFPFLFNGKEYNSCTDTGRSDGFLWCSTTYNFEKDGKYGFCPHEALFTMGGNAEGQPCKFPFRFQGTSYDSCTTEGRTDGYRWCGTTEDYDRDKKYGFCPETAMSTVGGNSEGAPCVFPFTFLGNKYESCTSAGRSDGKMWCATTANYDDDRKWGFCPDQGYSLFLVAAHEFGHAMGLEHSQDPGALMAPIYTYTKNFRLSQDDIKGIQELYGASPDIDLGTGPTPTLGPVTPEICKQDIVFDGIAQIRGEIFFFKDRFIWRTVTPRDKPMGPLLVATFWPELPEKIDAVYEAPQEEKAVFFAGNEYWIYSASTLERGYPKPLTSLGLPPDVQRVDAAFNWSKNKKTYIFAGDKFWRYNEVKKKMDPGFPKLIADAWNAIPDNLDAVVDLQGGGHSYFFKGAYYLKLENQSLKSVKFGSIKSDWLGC
# method.notes: Inhibition of MMP2
quantity.kind: pIC50
One number for each entry, as −log10 of the molar value.

Observe how each entry below is paired with its result.
{"structure": "O=C(NCCCC[C@H](NC(=O)c1ccc(Br)cc1)C(=O)O)OCc1ccccc1", "quantity.kind": "pIC50", "reported": 4.88}
{"structure": "O=C(NCCCC[C@H](NC(=O)c1ccco1)C(=O)O)OCc1ccccc1", "quantity.kind": "pIC50", "reported": 5.07}
{"structure": "O=C(/C=C/c1ccccc1)N[C@@H](CCCCNC(=O)OCc1ccccc1)C(=O)NO", "quantity.kind": "pIC50", "reported": 5.45}
{"structure": "O=C(NCCCC[C@H](NC(=O)c1ccc(Cl)cc1Cl)C(=O)NO)OCc1ccccc1", "quantity.kind": "pIC50", "reported": 3.77}
{"structure": "O=C(NCCCC[C@H](NC(=O)c1cccs1)C(=O)O)OCc1ccccc1", "quantity.kind": "pIC50", "reported": 4.90}

Consider now this further compound.
Respond only with pIC50 recorded for O=C(NCCCC[C@H](NC(=O)c1cccnc1)C(=O)NO)OCc1ccccc1 5.10

* * *

# method.notes: Inhibition of aminopeptidase N
What pIC50 was measured for each of the following?
Give bare numbers.

Observe how each entry below is paired with its result.
{"structure": "O=C(/C=C/c1ccccc1)N[C@@H](CCCCNC(=O)OCc1ccccc1)C(=O)O", "quantity.kind": "pIC50", "reported": 3.67}
{"structure": "O=C(/C=C/c1ccccc1)N[C@@H](CCCCNC(=O)OCc1ccccc1)C(=O)NO", "quantity.kind": "pIC50", "reported": 3.24}

// for each compound in input: emit pIC50
1. O=C(NCCCC[C@H](NC(=O)c1ccc([N+](=O)[O-])cc1)C(=O)O)OCc1ccccc1
2. O=C(NCCCC[C@H](NC(=O)c1ccc(Br)cc1)C(=O)O)OCc1ccccc1

1. 3.69
2. 3.73

* * *

What pIC50 was measured for each of the following?
# method.notes: Inhibition of aminopeptidase N
Answers are plain numbers, as −log10 of the molar value.

Observe how each entry below is paired with its result.
{"structure": "O=C(NCCCC[C@H](NC(=O)c1ccc(Cl)cc1Cl)C(=O)O)OCc1ccccc1", "pIC50": 3.90}
{"structure": "O=C(NCCCC[C@H](NC(=O)c1ccncc1)C(=O)O)OCc1ccccc1", "pIC50": 3.54}
{"structure": "O=C(NCCCC[C@H](NC(=O)c1ccc([N+](=O)[O-])cc1)C(=O)NO)OCc1ccccc1", "pIC50": 3.97}
{"structure": "O=C(NCCCC[C@H](NC(=O)c1ccco1)C(=O)O)OCc1ccccc1", "pIC50": 2.95}

Consider now this further compound.
Respond only with pIC50 recorded for O=C(NCCCC[C@H](NC(=O)c1cnccn1)C(=O)O)OCc1ccccc1 3.70

* * *

# method.notes: Inhibition of aminopeptidase N
What pIC50 was measured for each of the following?
Numbers only.

{"structure": "O=C(NCCCC[C@H](NC(=O)c1ccc(Cl)cc1Cl)C(=O)NO)OCc1ccccc1", "pIC50": 4.88}
{"structure": "O=C(NCCCC[C@H](NC(=O)c1cnccn1)C(=O)NO)OCc1ccccc1", "pIC50": 4.01}
{"structure": "O=C(NCCCC[C@H](NC(=O)c1ccc(Br)cc1)C(=O)NO)OCc1ccccc1", "pIC50": 3.95}

// for each compound in input: emit pIC50
1. O=C(NCCCC[C@H](NC(=O)c1cnccn1)C(=O)O)OCc1ccccc1
2. O=C(NCCCC[C@H](NC(=O)c1cccc([N+](=O)[O-])c1)C(=O)NO)OCc1ccccc1
3. O=C(NCCCC[C@H](NC(=O)c1ccco1)C(=O)NO)OCc1ccccc1

1: 3.7; 2: 4.02; 3: 3.8
